# Test system: plasma triglycerides
# METHOD NOTES: plasma TG induction in C57BL/6 mice vs plasma compound concentration (log-linear model)
# Type: in vivo, mouse
# PARTICULARS: (% RSE)
ASSAY ENDPOINT: TG induction in plasma m (scaling factor)

TG induction in plasma m (scaling factor) lookup needed for O=S(=O)(c1ccccc1)N(CC(F)(F)F)c1ccc(C(O)(C(F)(F)F)C(F)(F)F)cc1 [T0901317, reference compound] , thanks.
0.784 (17)

Also check CC(C)(C)N1C(=O)C(NC2CCN(c3ncc(CC(=O)O)cc3Cl)CC2)=C(c2ccccc2)S1(=O)=O [AZ4]
1.47 (28)

Also check O=C(O)Cc1ccc(COc2cccc(-c3c(Cc4ccccc4)cnc4c(C(F)(F)F)cccc34)c2)cc1 [WAY-254011, reference compound]
1.94 (4)

Also check CC(C)(C)N1C(=O)C(Nc2ccc(N3CCCCC3)cc2)=C(c2ccccc2)S1(=O)=O [AZ876]
3.44 (49)

Also check CC(CCCc1cccc(S(N)(=O)=O)n1)NC1=C(c2ccccc2)S(=O)(=O)N(C(C)C)C1=O (stereo not shown) [AZ2]
9.28 (63)

Also check CC(C)(O)c1cn(-c2ccc(-c3cc(F)c(CO)c(S(C)(=O)=O)c3)cc2F)c(C(C)(C)c2c(Cl)cccc2Cl)n1 [BMS-852927]
0.066 (18)

Also check CC(C)N1C(=O)C(NCCCCc2cccc(S(N)(=O)=O)n2)=C(c2ccccc2)S1(=O)=O [AZ3]
0.897 (20)

Also check CN(C)C(=O)c1cccc(CCCCNC2=C(c3ccccc3)S(=O)(=O)N(C(C)(C)C)C2=O)c1 [AZ1]
3.88 (30)

Also check O=C(O)Cc1cccc(OCCCN(Cc2cccc(C(F)(F)F)c2Cl)CC(c2ccccc2)c2ccccc2)c1 [GW3965, reference compound]
0.244 (18)

Also check O=C(O)Cc1ccc(CNC(=O)[C@@H]2Cc3ccccc3N2S(=O)(=O)c2ccc(-c3ccccc3C(F)(F)F)cc2)cc1 [F1, reference compound]
12.1 (38)

Every entry's value here was drawn from paper PMC6874530.
